biological target: EZH2 (Homo sapiens); assay: EZH2 assay: rPRC2 with biotinylated oligonucleosome substrates and 3H SAM, FlashPlate scintillation counting, IC50; assay type: biochemical; conditions: rPRC2, biotinylated oligonucleosome substrates, 3H SAM; read-out: EZH2 IC50
Sequence (Q15910 whole entry): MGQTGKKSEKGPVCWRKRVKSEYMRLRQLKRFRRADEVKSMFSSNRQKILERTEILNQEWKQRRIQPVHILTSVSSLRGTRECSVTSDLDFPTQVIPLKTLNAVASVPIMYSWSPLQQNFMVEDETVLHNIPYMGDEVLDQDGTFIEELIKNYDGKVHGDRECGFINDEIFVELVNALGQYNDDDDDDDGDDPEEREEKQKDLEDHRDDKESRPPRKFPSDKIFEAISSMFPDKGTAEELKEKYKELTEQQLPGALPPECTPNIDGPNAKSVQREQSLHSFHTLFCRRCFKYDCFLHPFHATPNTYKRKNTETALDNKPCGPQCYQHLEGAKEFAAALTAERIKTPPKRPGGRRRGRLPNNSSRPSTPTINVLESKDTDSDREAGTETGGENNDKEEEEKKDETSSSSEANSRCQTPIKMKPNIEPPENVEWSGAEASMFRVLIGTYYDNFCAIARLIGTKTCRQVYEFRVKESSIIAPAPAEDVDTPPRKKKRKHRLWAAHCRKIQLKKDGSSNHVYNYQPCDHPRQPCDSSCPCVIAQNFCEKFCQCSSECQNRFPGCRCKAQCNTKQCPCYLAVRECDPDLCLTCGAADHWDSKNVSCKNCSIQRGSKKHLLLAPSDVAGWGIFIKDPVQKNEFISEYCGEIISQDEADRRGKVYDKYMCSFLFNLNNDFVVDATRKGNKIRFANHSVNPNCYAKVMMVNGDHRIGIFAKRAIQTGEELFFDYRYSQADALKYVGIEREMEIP
Sequence (O75530 whole entry partner): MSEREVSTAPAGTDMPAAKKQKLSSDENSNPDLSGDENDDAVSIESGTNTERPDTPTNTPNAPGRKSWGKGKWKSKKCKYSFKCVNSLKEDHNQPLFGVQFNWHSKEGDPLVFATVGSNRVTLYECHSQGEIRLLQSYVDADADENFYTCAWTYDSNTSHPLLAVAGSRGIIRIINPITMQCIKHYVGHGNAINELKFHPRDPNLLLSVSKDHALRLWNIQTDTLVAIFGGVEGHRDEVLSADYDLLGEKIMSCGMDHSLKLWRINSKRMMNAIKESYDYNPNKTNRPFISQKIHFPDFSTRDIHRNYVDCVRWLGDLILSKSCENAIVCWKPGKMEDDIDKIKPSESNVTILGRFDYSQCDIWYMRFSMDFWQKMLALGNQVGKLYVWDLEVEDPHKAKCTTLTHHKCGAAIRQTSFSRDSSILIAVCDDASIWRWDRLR
Sequence (Q15022 whole entry partner): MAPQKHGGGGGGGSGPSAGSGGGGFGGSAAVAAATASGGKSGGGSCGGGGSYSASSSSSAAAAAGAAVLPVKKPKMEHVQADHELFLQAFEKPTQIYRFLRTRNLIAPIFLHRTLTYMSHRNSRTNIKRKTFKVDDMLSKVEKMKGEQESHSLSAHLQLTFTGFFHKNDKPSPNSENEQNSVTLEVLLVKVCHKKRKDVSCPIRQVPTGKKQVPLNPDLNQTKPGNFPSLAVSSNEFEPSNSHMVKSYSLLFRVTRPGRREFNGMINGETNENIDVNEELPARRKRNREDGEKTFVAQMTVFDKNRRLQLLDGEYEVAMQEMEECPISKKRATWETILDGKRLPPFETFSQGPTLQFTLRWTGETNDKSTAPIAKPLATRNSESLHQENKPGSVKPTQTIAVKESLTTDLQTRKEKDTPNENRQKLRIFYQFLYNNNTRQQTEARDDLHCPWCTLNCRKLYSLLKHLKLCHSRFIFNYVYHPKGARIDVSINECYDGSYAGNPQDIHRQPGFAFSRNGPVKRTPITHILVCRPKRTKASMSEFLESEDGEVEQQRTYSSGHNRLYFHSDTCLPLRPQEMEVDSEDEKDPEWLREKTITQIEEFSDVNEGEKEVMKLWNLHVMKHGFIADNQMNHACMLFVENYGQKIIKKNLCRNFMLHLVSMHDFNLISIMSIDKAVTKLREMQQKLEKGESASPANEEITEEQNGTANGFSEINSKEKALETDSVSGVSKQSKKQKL

>  <compound>
CC(=O)N1CCC(c2cccc(Oc3ccc(C(=O)NC4CC(C)(C)NC(C)(C)C4)cc3)c2C#N)CC1

>  <IC50>
< 5 µM

$$$$
>  <compound>
CC1(C)CC(NC(=O)c2ccc(OC3CCNC3)c(Cl)c2)CC(C)(C)N1 (centres unmarked)

>  <IC50>
> 80 µM

$$$$
>  <compound>
COc1cc(-c2cccc(Oc3ccc(C(=O)NC4CC(C)(C)NC(C)(C)C4)cc3Cl)c2C#N)ccn1

>  <IC50>
< 5 µM

$$$$
>  <compound>
CC1(C)CC(NC(=O)c2ccc(Oc3cccc(-c4ccnnc4)c3C#N)c(Cl)c2)CC(=O)N1 (centres unmarked)

>  <IC50>
20 to 80 µM

$$$$
>  <compound>
CC1(C)CC(NC(=O)c2ccc(Oc3cccc4cccnc34)c(Cl)c2)CC(C)(C)N1

>  <IC50>
5 to 20 µM

$$$$
>  <compound>
CC1(C)CC(NC(=O)c2ccc(Oc3cccc(C4CCOCC4)c3C#N)c(Cl)c2)CC(C)(C)N1

>  <IC50>
< 5 µM

$$$$
>  <compound>
CC1(C)CC(NC(=O)c2ccc(-c3ccc4ccncc4c3)c(Cl)c2)CC(C)(C)N1

>  <IC50>
5 to 20 µM

$$$$
>  <compound>
CC1(C)CC(NC(=O)N2CCC(Oc3ccccc3C#N)CC2)CC(C)(C)N1

>  <IC50>
> 80 µM

$$$$
